I'd appreciate it if you could supply %Inh values for the items below.
test system: LOK; construct: gene STK10; conditions: concentration: 1 μM, replicates: in singlicate; n = 1;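 further: KINOMEscan kinase panel screen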
Give the quantity in %, number only.

Given COc1cc(Nc2nccc(N3CCC(NC(=O)C(C)c4ccc(Cl)cc4)C3)n2)cc(OC)c1OC (centres unmarked) , state its recorded %Inh.
0

Recorded %Inh for CCn1c(-c2nonc2N)nc2ccccc21 , please?
11

So what's the measured %Inh for this one? CCCC(=O)Nc1n[nH]c2ncc(-c3cccc4ccccc34)cc12
0

Field request: %Inh | item: Cl.c1ccc(Cn2cnc3cc(Nc4ncnc5ccccc45)ccc32)cc1
0

Bench note: what %Inh did O=C(NCc1cccs1)c1cc(C(=O)c2c(Cl)cccc2Cl)c[nH]1 show?
21

###

system: SYK; settings: concentration: 1 μM, replicates: in singlicate; n = 1
endpoint: %Inh (%)
Give the quantity in %, number only.

Reported %Inh, compound CCC(=O)c1c(-c2ccccc2)c2cc(Cl)ccc2c(=O)n1Cc1cc(S(C)(=O)=O)n(CC(F)F)n1 : ____
0

Give the measured %Inh of O=c1cc(N2CCOCC2)nc2n(Cc3ccc(F)c(Cl)c3)ccn12 .
7

Form field: reported %Inh of COc1ccc(-c2cc3c(C)nc(N)nc3n([C@H]3CC[C@H](O)CC3)c2=O)cn1
0

Fill in the blank: the reported %Inh of Cl.NS(=O)(=O)c1cccc(Nc2cc(-c3ccc(F)cc3)n[nH]2)c1 is ____.
3

%Inh lookup needed for CCCNC(=O)Nc1ccc(Oc2ncnc3ccn(C)c23)cc1 , thanks.
0

Would you kindly share the measured %Inh for COc1ccc(CNC(=O)NC2CCN(c3ccnc(Nc4ccc(F)cc4)n3)C2)cc1 (stereo not shown) ?
34

Requested field: %Inh. Item: Cc1nnc(-c2ccc(C)c(-c3ccc(C(=O)O)cc3)c2)o1
0

###

I'd appreciate it if you could supply %Inh values for the items below.
test system: FGFR3; settings: concentration: 1 μM, replicates: in singlicate; n = 1
Write down the numeric answer in % and omit the unit.

Given the entry Cc1nn2c(=O)cc(N3CCOCC3)nc2n1Cc1cccc(Cl)c1Cl [GSK2342769] , report its measured %Inh.
15

Suppose we examine the molecule Fc1cccc(CSc2nnc(-c3ccc4c(c3)CCO4)o2)c1 ; what %Inh value has been reported?
0

Consider the molecule shown here: CCCC(=O)Nc1n[nH]c2ncc(-c3cccc4ccccc34)cc12 [SB-642057] What is its recorded %Inh?
0

Need %Inh, item Cc1cc(Nc2nc(-c3cccc(C)n3)nc3ccccc23)ccn1 [GW872411]
0

Entry under review: O=C(Nc1n[nH]c2cc(-c3ccccc3F)ccc12)C1CC1 [SB-733371] . Reported %Inh?
0

What value of %Inh has been recorded for this entry: COc1ccc(-c2cc3c(C)nc(N)nc3n([C@H]3CC[C@H](OCCO)CC3)c2=O)cn1
0

Consider the molecule COc1cc(Nc2nccc(N3CCC(NC(=O)C4COc5ccccc5O4)C3)n2)cc(OC)c1OC (stereo not shown) [GSK1379761] and give its measured %Inh.
9

Please report the recorded %Inh for COc1cc2nccc(Nc3ccc(OCc4ccc(NC(C)=O)cc4)cc3)c2cc1OC.Cl [GW440135] .
26

Fill blank: measured %Inh of the molecule O=C1NC(=O)C(c2ccccc2)=C1Nc1cccc(O)c1 [SB-390534] is ____.
10

Need %Inh of COc1ccc(-n2cnc3c(N)ncnc32)cc1 [SKF-97236] , thanks.
0

Bench note: what %Inh did Cc1cccc(-c2cc(-c3c[nH]nc3-c3ccccn3)ccn2)c1 [GW679395] show?
0

Param item = COc1ccc(-c2cc3c(C)nc(N)nc3n([C@H]3CC[C@H](O)CC3)c2=O)cn1 ; retrieve measured %Inh.
0

// returns reported %Inh for input CCc1ccc(-c2ccc3c(c2)-c2nn(C)cc2S(=O)(=O)N3C)cc1
0

Request the reported %Inh associated with O=C(NCCNc1ccnc(Nc2ccc(F)cc2)n1)Nc1ccc2c(c1)OCO2 [GSK1379882]
2

Which value of %Inh has been reported for COc1cc2ncn(-c3cc(OCc4ccc(S(C)(=O)=O)cc4)c(C(N)=O)s3)c2cc1OC [GW869979] in the records?
4

Can you look up the measured %Inh of COc1ccc(-c2coc3ccc(-c4nnc(SCc5cccc(C#N)c5)o4)cc23)cc1 for me?
17

Request the reported %Inh associated with OCCCNc1nccc(-c2c(-c3cccc(C(F)(F)F)c3)nn3cc(C(F)(F)F)ccc23)n1 [GW630813]
0

Which value of %Inh has been reported for CN1C(=O)C(Nc2ccccc2)=C(c2ccccc2)C1=O [SB-300079] in the records?
0

For the molecule Nc1ncnc2c1ncn2-c1ccc(Cl)cc1 [AH2635] , what %Inh is on record?
8
